- target-under-test: furin, P09958;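 further: purified furin at 1:10 enzyme:substrate in 50 mM HEPES pH 7.5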
- Sequence (P09958 whole entry): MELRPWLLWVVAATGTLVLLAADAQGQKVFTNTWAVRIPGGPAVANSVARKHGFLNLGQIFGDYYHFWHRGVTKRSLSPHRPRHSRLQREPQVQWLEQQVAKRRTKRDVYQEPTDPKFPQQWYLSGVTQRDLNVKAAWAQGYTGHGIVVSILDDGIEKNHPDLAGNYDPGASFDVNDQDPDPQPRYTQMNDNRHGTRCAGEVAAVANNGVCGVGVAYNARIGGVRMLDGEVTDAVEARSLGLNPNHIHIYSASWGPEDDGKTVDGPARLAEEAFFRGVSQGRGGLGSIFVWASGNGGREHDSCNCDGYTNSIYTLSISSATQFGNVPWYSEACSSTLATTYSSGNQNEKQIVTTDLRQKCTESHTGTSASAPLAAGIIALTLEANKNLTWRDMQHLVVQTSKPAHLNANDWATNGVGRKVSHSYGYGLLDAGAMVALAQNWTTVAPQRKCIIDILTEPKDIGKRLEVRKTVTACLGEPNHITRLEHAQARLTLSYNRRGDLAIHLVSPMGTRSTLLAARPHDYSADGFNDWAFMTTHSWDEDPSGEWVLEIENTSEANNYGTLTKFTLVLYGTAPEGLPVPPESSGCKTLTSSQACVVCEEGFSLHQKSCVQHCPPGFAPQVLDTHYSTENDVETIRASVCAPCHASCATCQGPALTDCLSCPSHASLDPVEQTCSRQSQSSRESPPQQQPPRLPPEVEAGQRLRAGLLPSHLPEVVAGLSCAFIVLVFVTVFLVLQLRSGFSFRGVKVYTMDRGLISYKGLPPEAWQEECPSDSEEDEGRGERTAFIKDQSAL
- measurement-protocol: furin cleavage Z-score vs untreated control; higher = more cleavage, active = 3.5 or more, inactive = 1 or less, 8 variable residues between constant flanks
- measurement-parameters: 7.5 min
This is one part of the list. The true hit rate is not given.
Classes used: 1 (yes) (active), 0 (no) (inactive)

> print(dat)
                 sequence.record  class.label
 1  CARTPRAVRPAGNASASA [FS-2241]      1 (yes)
 2    CALRTRPRRFAGNASASA [FS-58]      1 (yes)
 3  CADSSRSVRPAGNASASA [FS-1518]       0 (no)
 4   CALHQRVRRFAGNASASA [FS-820]      1 (yes)
 5  CAQRERSGRSAGNASASA [FS-1057]      1 (yes)
 6  CARRFRAALGAGNASASA [FS-3046]       0 (no)
 7  CALRSRWGRSAGNASASA [FS-1370]      1 (yes)
 8  CARRFRPRRSAGNASASA [FS-1073]      1 (yes)
 9  CARRFRPRRFAGNASASA [FS-1072]      1 (yes)
10    CALRSRSGRSAGNASASA [FS-57]      1 (yes)
11    CATQGCNCSIAGNASASA [HC311]       0 (no)
12   CAPGQRVEFLAGNASASA [HC1469]       0 (no)
13   CAQCTTPCSGAGNASASA [HC1962]       0 (no)
14    CAEVVGSTWVAGNASASA [HC122]       0 (no)
